- test system: STAT3 (Homo sapiens, UniProt P40763)
- Sequence (P40763 whole entry): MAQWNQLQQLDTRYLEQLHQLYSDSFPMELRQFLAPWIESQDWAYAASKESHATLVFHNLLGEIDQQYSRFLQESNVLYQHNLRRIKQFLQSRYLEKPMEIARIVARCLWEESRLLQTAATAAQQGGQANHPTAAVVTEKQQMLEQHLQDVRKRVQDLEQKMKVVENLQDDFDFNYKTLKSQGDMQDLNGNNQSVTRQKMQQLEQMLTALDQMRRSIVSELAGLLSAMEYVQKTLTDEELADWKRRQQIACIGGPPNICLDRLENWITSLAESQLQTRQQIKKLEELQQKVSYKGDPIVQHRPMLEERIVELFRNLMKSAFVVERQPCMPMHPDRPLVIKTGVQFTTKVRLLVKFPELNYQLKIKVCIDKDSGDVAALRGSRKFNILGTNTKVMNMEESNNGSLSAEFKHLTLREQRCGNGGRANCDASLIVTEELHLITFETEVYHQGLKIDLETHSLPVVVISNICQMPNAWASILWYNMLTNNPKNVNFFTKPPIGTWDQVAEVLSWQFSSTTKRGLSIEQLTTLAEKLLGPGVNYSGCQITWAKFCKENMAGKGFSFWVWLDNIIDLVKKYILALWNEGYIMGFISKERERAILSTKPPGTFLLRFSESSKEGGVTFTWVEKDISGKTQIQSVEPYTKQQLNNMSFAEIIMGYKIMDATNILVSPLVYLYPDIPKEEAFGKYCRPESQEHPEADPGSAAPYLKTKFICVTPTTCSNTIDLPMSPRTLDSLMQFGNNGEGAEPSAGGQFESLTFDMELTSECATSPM
- experiment summary: STAT3 HiBiT degradation assay in transfected A549 cells
- Assay type: cell-based
- Design: expressed in transfected cells; host or cells: A549
- conditions used: A549, 24 h; read-out: STAT3 HiBiT A549 degradation 24 h: Average external-Abs DC50
Would you mind telling me the reported DC50 of each entry?

Here are 2 compounds together with their reported answers.
Cc1ncsc1-c1ccc([C@H](C)NC(=O)[C@@H]2C[C@@H](O)CN2C(=O)[C@@H](NC(=O)CCCc2cccc(OC[C@H](CCC(N)=O)NC(=O)[C@@H]3Cc4cccc5c4N3C(=O)[C@@H](NC(=O)c3cc4cc(C(=O)P(=O)(O)O)ccc4[nH]3)CC5)c2F)C(C)(C)C)cc1: < 10 nM
Cc1ncsc1-c1ccc([C@H](C)NC(=O)[C@@H]2C[C@@H](O)CN2C(=O)[C@@H](NC(=O)CCCCc2ccc(CO[C@H](C)[C@H](CCC(N)=O)NC(=O)[C@@H]3Cc4cccc5c4N3C(=O)[C@@H](NC(=O)c3cc4cc(C(=O)O)ccc4[nH]3)CC5)cc2)C(C)(C)C)cc1: > 1000 nM

Turning now to a further compound:
DC50 recorded for this compound, `Cc1ncsc1-c1ccc([C@H](C)NC(=O)[C@@H]2C[C@@H](O)CN2C(=O)[C@@H](NC(=O)CCCCCc2cccc(NC(=O)[C@H](CCC(N)=O)NC(=O)[C@@H]3Cc4cccc5c4N3C(=O)[C@@H](NC(=O)c3cc4cc(C(=O)P(=O)(O)O)ccc4[nH]3)CC5)c2C)C(C)(C)C)cc1` , is 100 to 1000 nM

====

Would you mind telling me the reported DC50 of each entry?
- test system: STAT3 (Homo sapiens)
- experiment summary: STAT3 HiBiT degradation assay in transfected A549 cells
- Type: cell-based
- Design: expressed in transfected cells; host or cells: A549
- conditions used: A549, 24 h; read-out: STAT3 HiBiT A549 degradation 24 h: Average external-Abs DC50

Here are 3 compounds together with their reported answers.
Cc1ncsc1-c1ccc(CNC(=O)[C@@H]2C[C@@H](O)CC2C(=O)[C@@H](NC(=O)CC/C=C/c2ccc(CO[C@H](C)[C@H](CCC(N)=O)NC(=O)[C@@H]3Cc4cccc5c4N3C(=O)[C@@H](NC(=O)c3cc4cc(C(=O)P(=O)(O)O)ccc4[nH]3)CC5)cc2)C(C)(C)C)cc1 (some centres unmarked): > 1000 nM
Cc1cc(CCCCCC(=O)N[C@H](C(=O)N2C[C@H](O)C[C@H]2C(=O)N[C@@H](C)c2ccc(-c3scnc3C)cc2)C(C)(C)C)cc(NC(=O)[C@H](CCC(N)=O)NC(=O)[C@@H]2Cc3cccc4c3N2C(=O)[C@@H](NC(=O)c2cc3cc(C(=O)P(=O)(O)O)ccc3[nH]2)CC4)c1: < 10 nM
Cc1ncsc1-c1ccc([C@H](C)NC(=O)[C@@H]2C[C@@H](O)CN2C(=O)[C@@H](NC(=O)CCCCCc2cccc(NC(=O)[C@H](CCC(N)=O)NC(=O)[C@@H]3Cc4cccc5c4N3C(=O)[C@@H](NC(=O)c3cc4cc(C(=O)P(=O)(O)O)ccc4[nH]3)CC5)c2)C(C)(C)C)cc1: 10 to 100 nM

Value sought for every listed compound: DC50.
1. Cn1c(=O)n(C2CCC(=O)NC2=O)c2ccc(CN3CCN(CC(=O)N4CC[C@H]5CC[C@@H](C(=O)N[C@@H](CCC(N)=O)C(=O)NC(c6ccccc6)c6ccccc6)N5C(=O)[C@@H](NC(=O)c5cc6cc(C(=O)P(=O)(O)O)ccc6[nH]5)C4)CC3)cc21 (some centres unmarked)
2. Cn1c(=O)n(C2CCC(=O)NC2=O)c2ccc(CCCCCCC(=O)N3CC[C@H]4CC[C@@H](C(=O)N[C@H](CCC(N)=O)C(=O)NC(c5ccccc5)c5ccccc5)N4C(=O)[C@@H](NC(=O)c4cc5cc(C(=O)P(=O)(O)O)ccc5[nH]4)C3)cc21 (some centres unmarked)
3. Cc1cc(CO[C@H](C)[C@H](CCC(N)=O)NC(=O)[C@@H]2Cc3cccc4c3N2C(=O)[C@@H](NC(=O)c2cc3cc(C(=O)P(=O)(O)O)ccc3[nH]2)CC4)ccc1CCCCC(=O)N[C@H](C(=O)N1C[C@H](O)C[C@H]1C(=O)N[C@@H](C)c1ccc(-c2scnc2C)cc1)C(C)(C)C
4. Cc1ncsc1-c1ccc([C@H](C)NC(=O)[C@@H]2C[C@@H](O)CN2C(=O)[C@@H](NC(=O)CCCc2cccc(OC[C@H](CCC(N)=O)NC(=O)[C@@H]3Cc4cccc5c4N3C(=O)[C@@H](NC(=O)c3cc4cc(C(=O)P(=O)(O)O)ccc4[nH]3)CC5)c2Cl)C(C)(C)C)cc1
5. Cc1ncsc1-c1ccc(CNC(=O)[C@@H]2C[C@@H](O)CN2C(=O)[C@@H](NC(=O)CC2CC(Cc3ccc(CO[C@H](C)[C@H](CCC(N)=O)NC(=O)[C@@H]4Cc5cccc6c5N4C(=O)[C@@H](NC(=O)c4cc5cc(C(=O)P(=O)(O)O)ccc5[nH]4)CC6)cc3)C2)C(C)(C)C)cc1 (some centres unmarked)
6. Cn1c(=O)n(C2CCC(=O)NC2=O)c2ccc(CC3CCN(CC(=O)N4CC[C@H]5CC[C@@H](C(=O)N[C@@H](CCC(N)=O)C(=O)NC(c6ccccc6)c6ccccc6)N5C(=O)[C@@H](NC(=O)c5cc6cc(C(=O)P(=O)(O)O)ccc6[nH]5)C4)CC3)cc21 (some centres unmarked)

*A*
100 to 1000 nM
> 1000 nM
< 10 nM
< 10 nM
> 1000 nM
> 1000 nM
